Origin of measurements: PubChem BioAssay (NCI)

# System: OVCAR-8 ovarian
# ASSAY EXPLANATION: NCI-60 one-dose screen, 48 h (100 = growth as untreated, 0 = no growth, -100 = all killed)
# SETUP CONDITIONS: 10 µM
About 83,000 compounds went through this panel and 20% of them were active in at least one assay; those are over-represented in the sample as a whole.
Assign labels as follows, please: True for growth below 80%; False for growth equal to or exceeding 80%.

Solved cases below.
O=C1Nc2cc(Cl)ccc2/C1=C/c1ccc(OCc2ccc(Br)cc2F)cc1 : True
CC1(C)CC[C@]2(C(=O)N3CCOCC3)CC[C@]3(C)C(=CC[C@@H]4[C@@]5(C)CC[C@H](NCO)C(C)(C)[C@@H]5CC[C@]43C)[C@H]2C1 : True

**Q:** growth under 80%? Item: Cc1ccc(C(C)C)cc1NC(=O)c1ccccc1N(C)C
**A:** False

**Q:** Further, for N#Cc1c(-c2ccc(Cl)cc2)cc(-c2ccccc2)nc1OCc1ccccc1 ?
**A:** False
